# System: BDF1 mice, colon carcinoma 38 sc, T/C %
# experiment_description: NCI In Vivo Anticancer Drug Screen. Data for tumor model Colon Carcinoma 38 (subcutaneous) in B6D2F1 (BDF1) mice
# condition_set: endpoint: median tumor weight (est.); dose: 100.0 mg/kg/injection; schedule: Q07DX002 (ip); vehicle: suspension in saline; higher = larger tumour
Results filed as inconclusive are left out.
readout_name: T/C

molecule	T/C
Nc1nc2c(ncn2C2OC(CO)C(O)C2O)c(=O)[nH]1 (stereo unspecified)	100 % of control
CC(=O)OCC1OC(n2ncc(=O)[nH]c2=O)C(OC(C)=O)C1OC(C)=O (stereo unspecified)	95 % of control
Nc1nc2nc[nH]c2c(=O)[nH]1	90 % of control
CN(C)[C@@H]1C(=O)C(C(N)=O)=C(O)[C@@]2(O)C(=O)C3=C(O)c4c(O)ccc(Cl)c4[C@@](C)(O)[C@H]3C[C@@H]12	80 % of control
Oc1ccc(O)cc1	97 % of control

Note: attention shifts to another entry.
Record summary for "COc1cc(Cc2nccc3cc(OC)c(OC)cc23)c(C(C)=O)cc1OC" : reported T/C = 69 % of control
